B1: MFF (parent)
chain: MAEISRIQYEMEYTEGISQRMRVP

- Variants of: B1
- assay text: protein stability index of a GFP-peptide fusion (GPS, HEK-293T) (PSI 1-6); higher = more stable;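 also: lentivirally expressed fusions sorted by FACS into six bins by GFP to DsRed ratio, PSI derived from sequencing read proportions per bin multiplied by bin number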
- stated conditions: c terminus: a fixed tail appended
In this section we review reported protein stability index values for a set of variants.

Answered cases to consult:
I4L ... 2.99
M11W ... 1.99
E3G ... 2.96
S18C ... 2.41
E12S ... 2.42

Inquiry: Would you mind telling me what protein stability index value was observed for `Y13G` ?
Reply text: 3.66

Inquiry: Would you mind telling me what protein stability index value was observed for `M21F` ?
Reply text: 2.38

Inquiry: Would you mind telling me what protein stability index value was observed for `I4T` ?
Reply text: 3.86

Inquiry: Would you mind telling me what protein stability index value was observed for `P24W` ?
Reply text: 1.32

Hello, the source for this data is the supplement of paper PMC10567573, in case you need it.
